procedure-details: Particle size and PDI of hand-mixed mRNA or DNA LNPs
Type: physicochemical
experimental-setup: hand-mixed mRNA LNPs: compound/DOPE/Cholesterol/DMG-PEG2000 41.44/45.85/10/2.7, lipid:RNA 40:1
measured-metric: Particle Size (nm) RNA
Answers are plain numbers, in nm.

Here is how some compounds turned out for Particle Size (nm) RNA.
CC(C)C(CCC1CCC(C(=O)OCCCCCCCCCCCCOC(=O)C2CCC(CCC(SCCN(C)C)C(C)C)C(SCCN(C)C)C2)CC1SCCN(C)C)SCCN(C)C (centres unmarked) = 267.1
CC(C)C(CCC(C)C(CCC1CCC(C(=O)OCCCCCCCCCCCCCCCCCCCCOC(=O)C2CCC(CCC(SCCN(C)C)C(C)CCC(SCCN(C)C)C(C)C)C(SCCN(C)C)C2)CC1SCCN(C)C)SCCN(C)C)SCCN(C)C (centres unmarked) = 162.7
CC(C)C(CCC(C)C(CCC1CCC(C(=O)OCCCCCCOC(=O)C2CCC(CCC(SCCN(C)C)C(C)CCC(SCCN(C)C)C(C)C)C(SCCN(C)C)C2)CC1SCCN(C)C)SCCN(C)C)SCCN(C)C (centres unmarked) = 254.1
CC(C)C(CCC1CCC(C(=O)OCCCCCCCCCCCCCCCCCCCCOC(=O)C2CCC(CCC(SCCN(C)C)C(C)C)C(SCCN(C)C)C2)CC1SCCN(C)C)SCCN(C)C (centres unmarked) = 188.8

Let us examine a further case.
Quick note, Particle Size (nm) RNA for CC(C)C(CCC(C)C(CCC1CCC(C(=O)OCCCCCCSCCCCCCCCSCCCCCCOC(=O)C2CCC(CCC(SCCN(C)C)C(C)CCC(SCCN(C)C)C(C)C)C(SCCN(C)C)C2)CC1SCCN(C)C)SCCN(C)C)SCCN(C)C (centres unmarked) landed at 221.0
